# assay-details: in vitro
# experimental-conditions: human, huh7 cells
Structures can show the parent of a compound that is named as a salt.

molecule | CC50
COc1cccc2c1C(=O)c1c(O)c3c(c(O)c1C2=O)C[C@@](O)(C(=O)CO)C[C@@H]3O[C@H]1C[C@H](N)[C@@H](O)[C@H](C)O1 [epirubicin hydrochloride] | > 100 nM
